MEASUREMENT TARGET: Rap guanine nucleotide exchange factor 3 (Homo sapiens)
EXPERIMENTAL PROTOCOL: Confirmatory qHTS for agonist of cAMP-regulated guanine nucleotide exchange factor 3 (EPAC1) (AID 1645881);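 further: EPAC1 catalysed release of BODIPY-GDP from Rap1B seen as fluorescence loss; nearly all actives have a fitted effect of over 75% in size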
ASSAY SETUP: EPAC1 Rap1B BODIPY-GDP exchange fluorescence, 100% = cAMP control response; series mostly up to 154 µM
Records with an inconclusive call do not appear. Activity calls are given as the source filed them. The call rests on the fitted dose curve; in most records, active means well fitted activation curve with a large enough effect; inconclusive means small, poorly fitted or top-dose-only effect; inactive means no such curve, though single readings can be large or run the other way.
READOUT LABEL: outcome

[[record]]
molecule = "CC(=O)NC(c1cccs1)c1cc(Br)c2cccnc2c1O (stereo not drawn)"
recorded_measurement = "inactive"

[[record]]
molecule = "CC(=O)NC(c1cccs1)c1cc(Cl)c2ccccc2c1O (stereo not drawn)"
recorded_measurement = "inactive"

[[record]]
molecule = "CCC(=O)NC(c1cc(Cl)c2ccccc2c1O)C(C)C (stereo not drawn)"
recorded_measurement = "inactive"

